Experiment: PK studies in mice
Conditions: female, CD-1, mouse, plasma, ip, 30 mg/kg, blood plasma level of AS-99, i.p., time 24 h

- smiles-string: "CN1CC(C(=O)NCc2ccc3c(-c4cccc(C(N)=S)c4)cn(C4CCN(S(=O)(=O)C(F)(F)F)CC4)c3c2)C1"
  concentration at 24 h [nM]: 33.7

* * *

Target: ASH1L SET domain (2069–2288) (Homo sapiens)

- smiles-string: "NCc1ccc2c(-c3cccc(C(N)=S)c3)cn(CCO)c2c1"
  unit-label: "µM"
  Kd: 6.2

* * *

Experiment: PK studies in mice
Conditions: female, CD-1, mouse, plasma, ip, 30 mg/kg, blood plasma level of AS-99, i.p., time 1 h
observed-property: concentration at 1 h (µM)

- molecule: "CN1CC(C(=O)NCc2ccc3c(-c4cccc(C(N)=S)c4)cn(C4CCN(S(=O)(=O)C(F)(F)F)CC4)c3c2)C1 [AS-99]"
  unit-label: "µM"
  assay-value: 6.11
